test: Viability Counterscreen for CMV-Luciferase Assay of Inhibitors of ATXN expression; conditions: HEK-293 CMV-luciferase cells viability, protease fluorescence, 24 h; note: nearly all actives have a fitted effect of over 55% in size; note: potency is the fitted concentration of half-maximal effect
Screen size: about 2,100 compounds; about 320 (15%) were called active. Not shown: some 52% with an inconclusive outcome. This is one part of the list.
Property: Potency

1) Cc1ccccc1SCC(=O)N1CCN(c2ccc(C(F)(F)F)cn2)CC1 : inactive
2) CC(C)(C)OC(=O)CNC(=O)c1[nH]cnc1C(=O)Nc1ccc(CNC(=O)OC(C)(C)C)cc1 : inactive
3) Cc1cc(SCC(=O)N/N=C/c2ccc(O)cc2O)nc2ccccc12 : 12.6 µM (active)
4) O=C(CP(=O)(c1ccccc1)c1ccccc1)N/N=C/c1cc(Br)cc(Br)c1O : inactive

Consider the additional compound presented here.
Item: O=C(CSC1=NNC(c2ccccn2)S1)Nc1ccc(C(F)(F)F)cc1 (stereo not given) | Potency: 14.1 µM (active)

---

experiment: Viability Counterscreen for CMV-Luciferase Assay of Inhibitors of ATXN expression; details: HEK-293 CMV-luciferase cells viability, protease fluorescence, 24 h; note: nearly all actives have a fitted effect of over 55% in size
Screen size: about 2,100 compounds; about 320 (15%) were called active. Inconclusive results (about 52%) are left out. Calls follow the shape of the dose curve; as a rule, active = well fitted cell-killing curve with a large enough effect; inconclusive = small, poorly fitted or top-dose-only effect, or effect the other way; inactive = flat fitted curve, though single readings scatter. The list shows a part of the results.
Permitted responses: true (1) = active, false (0) = inactive

1. COc1cccc(/C=N/NC(=O)c2ccc(-c3ccccc3)cc2)c1O : false (0)
2. O=C(CN1C(=O)C2CCCCC2C1=O)Nc1nc(-c2ccccn2)cs1 (stereo unspecified) : true (1)
3. CCCCC(=O)NNC(=S)NC(=O)c1ccc(C)cc1 : false (0)
4. O=C(CN1C(=O)c2ccccc2S1(=O)=O)c1ccc(O)c(O)c1 : false (0)
5. O=C(Nc1nc(-c2ccccn2)cs1)c1ccc(F)c(S(=O)(=O)N2CCOCC2)c1 : true (1)
6. NC(c1ccccc1)c1csc(NC(=O)Nc2ccccc2Oc2ccccc2)n1 (stereo unspecified) : false (0)
7. COc1cccc(C(=O)Nc2nc(-c3ccc(S(=O)(=O)N4CCOCC4)cc3)cs2)c1 : false (0)
8. O=C(Nc1nc(-c2ccccn2)cs1)Nc1ccc(F)cc1F : true (1)
9. O=C(Nc1nc(-c2ccc(S(=O)(=O)N3CCOCC3)cc2)cs1)c1ccccc1 : false (0)
10. CC(C)CC(=O)NC(=S)NNC(=O)c1ccc(NC(=O)C2CCCCC2)cc1 : false (0)

Moving on to another molecule below.
Problem: I would be grateful if you could indicate the recorded call for Cc1ccc(C)c(/C=C/C(=O)c2ccccc(=O)c2O)c1 .
Solution: true (1)

---

assay: Viability Counterscreen for CMV-Luciferase Assay of Inhibitors of ATXN expression; settings: HEK-293 CMV-luciferase cells viability, protease fluorescence, 24 h; note: nearly all actives have a fitted effect of over 55% in size
Hit rate of the full screen: of about 2,100 compounds, about 320 (15%) were called active. Another 52% or so got no clear call; they are omitted. The call rests on the fitted dose curve; in most records, active means well fitted cell-killing curve with a large enough effect; inconclusive means small, poorly fitted or top-dose-only effect, or effect the other way; inactive means flat fitted curve, though single readings scatter. The list shows a part of the results.
Permitted responses: active, inactive

See these solved cases before continuing.
1) COc1ccc(C)cc1NC(=O)CSc1ccc(-c2ccccn2)nn1 : active
2) Cc1nc(Oc2ccc(S(=O)(=O)N3CCOCC3)cc2Cl)c2c3c(sc2n1)CCCC3 : inactive
3) Cc1cc(C)n(-c2ccc(C(=O)N3CCN(S(=O)(=O)c4cccc(Br)c4)CC3)cc2)n1 : inactive
4) Cn1c(N)c(C(=O)Nc2ccc(-c3ccccc3)cc2)sc1=S : inactive
5) COC(=O)N/N=C/c1cn(CC(C)COc2ccccc2)c2ccccc12 (stereo unspecified) : inactive

Moving on to another compound below.
Problem: I would be grateful if you could indicate the recorded call for Nc1ccc(Oc2ccccc2-c2ccccc2)cc1 .
Solution: inactive
